experiment: protein stability index of a GFP-peptide fusion (GPS, HEK-293T) (PSI 1-6); higher = more stable; conditions: treatment: MLN4924 1 uM, 8 h; c terminus: a fixed tail appended;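 also: 24-mer peptide tiles fused after GFP, lentivirally expressed, FACS-sorted into six equal bins by GFP/DsRed ratio, decoded by Illumina sequencing, PSI is the read-weighted mean bin number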
Please enter fulfilled where protein stability index is greater than or equal to 3, and not fulfilled where it is lower.

Solved entries:
> print(dat)
                       residue.codes  discrete.label
1  QIMQGLEHPFLVNLWYSFQDEEDM [STK32A]   not fulfilled
2   DQEHNVAALKQAIKDKEAPLHVAQ [TEKT4]       fulfilled
3           PLSPIQASSVHLKSESSLPHQTSK       fulfilled

Task: Determine whether this sequence has protein stability index no lower than 3: LPLGIKVYEDETKVVHAVDGTAEN [PALM]
Result: fulfilled

Task: Determine whether this sequence has protein stability index no lower than 3: GTDVTRCICGFTHDDGYMICCDKC [KMT2E]
Result: fulfilled

Task: Determine whether this sequence has protein stability index no lower than 3: QDELRNRSVKVICLGSLASKLSRK [FAN1]
Result: fulfilled

====

test: protein stability index of a GFP-peptide fusion (GPS, HEK-293T) (PSI 1-6); higher = more stable; conditions: treatment: MLN4924 1 uM, 8 h; c terminus: a fixed tail appended
Please enter rule met where protein stability index is greater than or equal to 4, and rule not met where it is lower.

> print(dat)
                         residue.codes  discrete.label
1    LGHPALSQEEGKSALEDQGSNPSS [PPFIA4]        rule met
2  SAGNAPLNEEINIASSDSEVEIVG [C18orf25]        rule met
3      RLIKELAKYEYMEEQVILTEKDLL [SAT1]    rule not met
4  VTSQERHCLQQRRKSVPGPGNRTC [ADAMTSL2]        rule met
5   NWPKNSNGVTQKASAPTYPSLYSS [NANOGP8]    rule not met

Task: Determine whether this sequence has protein stability index no lower than 4: NLFEGMIWFIVPISCVICNDIMAY [CDS2]
Result: rule not met

Task: Determine whether this sequence has protein stability index no lower than 4: LFQLSCSSTQLNELLLFAVGFIMA [OR3A1]
Result: rule not met

Task: Determine whether this sequence has protein stability index no lower than 4: PDPSVWSRRYTEMALPFFSLAEVR [MYORG]
Result: rule not met

Task: Determine whether this sequence has protein stability index no lower than 4: AWSQRSAAGRVCRPPGPAGTEQSR [CPOX]
Result: rule met

Task: Determine whether this sequence has protein stability index no lower than 4: EDPVPGMLFFLPPGQHLSDYSQLN [FBXO34]
Result: rule not met

====

assay: protein stability index of a GFP-peptide fusion (GPS, HEK-293T) (PSI 1-6); higher = more stable; conditions: treatment: MLN4924 1 uM, 8 h; c terminus: a fixed tail appended
Please enter fulfilled where protein stability index is greater than or equal to 3, and not fulfilled where it is lower.

Solved entries:
> print(dat)
                         residue.codes  discrete.label
1     FRVAKKRAPKVLGTTLVVGLLAGV [GDAP1]   not fulfilled
2      ARSAASYMLFDPKDSVMQQNLVYY [P3H4]   not fulfilled
3  FMRTSVKISYIGLMTQSSLETHHY [TMEM106C]   not fulfilled
4     PETLTNLRKGYLFMYNLVQFLGFS [HACD3]   not fulfilled
5    YYYTKVMSELFLHTPSDTGVSFQA [PKD2L1]   not fulfilled

Task: Determine whether this sequence has protein stability index no lower than 3: SELDADHPGFKDNVYRKRRKYFAD [TPH1]
Result: fulfilled

Task: Determine whether this sequence has protein stability index no lower than 3: HDQCKCENLIMFQNLANEEVRKLT [MATN2]
Result: fulfilled

Task: Determine whether this sequence has protein stability index no lower than 3: PVIPAAALAGYTGSGPIQLWQFLL [ETS1]
Result: not fulfilled

====

experiment: protein stability index of a GFP-peptide fusion (GPS, HEK-293T) (PSI 1-6); higher = more stable; conditions: treatment: DMSO; c terminus: a fixed tail appended
Consider the following sequences and their measured protein stability index readings.
Lab note: jot down the number only; don't add units.

Use the examples below as a reference point.
> print(dat)
                       residue.codes            endpoint.name  obs.value
1  VVHEDFREDILSCYDVYSPDKEEQ [PKD2L1]  protein stability index        4.7
2    SNISRPRDNPMCLKCDLQERLLCP [M1AP]  protein stability index       2.87
3   ADGGGAPPQGGCGGGGCDRYEPLP [KCNA3]  protein stability index       4.54
4    PKRMPSGRGGRDRFTAESYTVLGD [FSD1]  protein stability index       4.11
5   GTLDCISMALTCTFNRWGTLLAVG [RBBP5]  protein stability index        3.2
6    MERLRELQRASILDMRRDHEEQLQ [FBF1]  protein stability index       4.28

Task: What value of protein stability index has been reported for the following sequence? ETRRRMEMAFNTRCKEENTIILQQ [NLN]
Result: 2.66

Task: What value of protein stability index has been reported for the following sequence? SRSPLKIVKKPKSMQCKVILLDGS [EPB41L3]
Result: 2.52

Task: What value of protein stability index has been reported for the following sequence? PGPDTGPDSELSPCIPPGFRNLVA [SPAG8]
Result: 3.79

Task: What value of protein stability index has been reported for the following sequence? VVVCQCGLSIPSHSSELTEQKLRA [RPAIN]
Result: 2.1

Task: What value of protein stability index has been reported for the following sequence? RGFFFSHVGWLLVRKHPAVKEKGS [SCD]
Result: 2.31

Task: What value of protein stability index has been reported for the following sequence? HARLSDIWAKTPPITRKAAQLYTL [DHCR7]
Result: 2.29

====

assay: protein stability index of a GFP-peptide fusion (GPS, HEK-293T) (PSI 1-6); higher = more stable; conditions: treatment: MLN4924 1 uM, 8 h; c terminus: a fixed tail appended
ENDPOINT NAME: protein stability index
Lab note: jot down the number only; don't add units.

Task: What value of protein stability index has been reported for the following sequence? HIIHVWEETGSRFHNCLIQLYCEK [VPS39]
Result: 2.37

Task: What value of protein stability index has been reported for the following sequence? PSEICDRLVNEYVELVNAACNFEP [ZER1]
Result: 3.17

Task: What value of protein stability index has been reported for the following sequence? YFTDLFDYLPLTALVDGQIFCLHG [PPP2CA]
Result: 2.91

Task: What value of protein stability index has been reported for the following sequence? LELNFKAGDVIFLLSRINKDWLEG [NCF4]
Result: 3.09

Task: What value of protein stability index has been reported for the following sequence? CYLELFPAHLYFQAHGSEGLTFQG [PLEKHN1]
Result: 2.31

Task: What value of protein stability index has been reported for the following sequence? EERRVVHASGDASYSAGDSGDAAA [EPB41L3]
Result: 5.42

Task: What value of protein stability index has been reported for the following sequence? ERSSFYSCAGGRLFQQSCPTGLVF [CHIT1]
Result: 2.13

Task: What value of protein stability index has been reported for the following sequence? DYPYSPPAFRFLTKMWHPNIYETG [CDC34]
Result: 1.94

Task: What value of protein stability index has been reported for the following sequence? AIPIKSWFSDPSDTALLNLLPMLD [CTDNEP1]
Result: 2.47

Task: What value of protein stability index has been reported for the following sequence? KPLFCGNSEADQLGKIFDLIGLPP [CDK4]
Result: 2.71

Task: What value of protein stability index has been reported for the following sequence? LLCAVCYDPFRDAVTLRCGHNFCR [TRIM35]
Result: 2.46

Task: What value of protein stability index has been reported for the following sequence? LKAFNMFVRLFVDENLDRMVPISK [NOL4L]
Result: 2.41

Task: What value of protein stability index has been reported for the following sequence? LPGGTTGLQLPSTLPVSGNLLDVY [TFE3]
Result: 3.23

Task: What value of protein stability index has been reported for the following sequence? TTNPHTSASHRPCVNGDVDKPSEP [SMG5]
Result: 5.12

Task: What value of protein stability index has been reported for the following sequence? AGQLMGFFKGIDQDIERGVQSEIF [LYSMD4]
Result: 2.75

Task: What value of protein stability index has been reported for the following sequence? LVHHRAAHSNEILIFSVQPKSLVR [KLHDC2]
Result: 2.21

====

test: protein stability index of a GFP-peptide fusion (GPS, HEK-293T) (PSI 1-6); higher = more stable; settings: treatment: MLN4924 1 uM, 8 h; c terminus: a fixed tail appended
Please enter Met where protein stability index is greater than or equal to 4, and Not met where it is lower.

Solved entries:
> print(dat)
                        residue.codes  discrete.label
1    VRKSRDKAKRRNQEMQQKLVELSA [CEBPD]         Not met
2  MVPVENTEGPSLLNQKGTAVETEG [SLC2A12]             Met

Task: Determine whether this sequence has protein stability index no lower than 4: SLLFVVMFIPETKGCSLEQISMEL [SLC2A12]
Result: Not met

Task: Determine whether this sequence has protein stability index no lower than 4: GPMMKLKRHFVAQKYKKQIDHMYH [ACSBG2]
Result: Not met

Task: Determine whether this sequence has protein stability index no lower than 4: EGLGQSLGNFKDDLLNVCMRHVEK [TRIM29]
Result: Not met

Task: Determine whether this sequence has protein stability index no lower than 4: LELGSYIKDLSVVHSDLSSIVILD [CTDNEP1]
Result: Not met

Task: Determine whether this sequence has protein stability index no lower than 4: LRARNYEYLIRLFQEWEAHRNLSQ [TCF25]
Result: Not met

Task: Determine whether this sequence has protein stability index no lower than 4: PHTPQTPGQGGPASTPAQTAAGGQ [NR2F2]
Result: Met

Task: Determine whether this sequence has protein stability index no lower than 4: SRAPCKVQGLEGIKMAMVACGDAF [NEK8]
Result: Not met

Task: Determine whether this sequence has protein stability index no lower than 4: LLKTEALKRQAQEEAKGALLGTSG [DAPK3]
Result: Met
